# subject_of_test: c-Myc template DNA (c-myc quadruplex)
# test_description: Quadruplex binding / stop assay (Taq polymerase arrest, capillary electrophoresis)
# condition_info: read-out: S DATA; Table 1D, stop assay data
measured_quantity: IC50

1. O=C(NCCN1CCCC1)c1cn2c3c(c(NCC4CCCO4)c(F)cc3c1=O)Oc1cc3ccccc3cc1-2 (stereo not shown)	3 µM
2. CCCCN1CCC(CNc2c(F)cc3c(=O)c(C(=O)NCCC4CCCN4C)cn4c3c2Oc2cc3ccccc3cc2-4)CC1 (stereo not shown)	1 µM
3. CN(C)CC(C)(C)CNC(=O)c1cn2c3c(c(N4CC5CCCNC5C4)c(F)cc3c1=O)Oc1cc3ccccc3cc1-2 (stereo not shown)	0.375 µM
4. CCc1ccc(CCNc2c(F)cc3c(=O)c(C(=O)NCCC4CCCN4C)cn4c3c2Oc2cc3ccccc3cc2-4)cc1OC (stereo not shown)	0.69 µM
